Exercise: state measured apical domain:HSA for each of the binders provided.
# target under test: T1, CD71 apical domain (UniProt P02786 189-383, limits assumed)
# T1 construct: domain: Apical domain
# T1 sequence (P02786 189-383 limits assumed): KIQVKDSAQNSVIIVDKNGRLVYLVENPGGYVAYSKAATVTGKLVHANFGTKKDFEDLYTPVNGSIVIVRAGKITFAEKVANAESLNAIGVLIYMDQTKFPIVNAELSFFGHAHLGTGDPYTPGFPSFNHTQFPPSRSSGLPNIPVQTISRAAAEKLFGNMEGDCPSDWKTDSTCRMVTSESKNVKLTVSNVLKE
# assay notes: solution ELISA, signal ratio to HSA
Would you mind answering with just the numeric figure?

*Q* Identify measured apical domain:HSA associated with SEQ ID NO 166 (designed binder, FN3 domain) MLPAPKNLVVSRVTEDSARLSWTAPDAAFDSFYIAYAEPRPDGEAIFLQVPGSERSYDLTGLKPGTEYSVLIHGVKGGLLSSPLNAFFTT
*A* 170

*Q* Identify measured apical domain:HSA associated with SEQ ID NO 195 (designed binder, FN3 domain) MLPAPKNLVVSRVTEDSARLSWTAPDAAFDSFYIAYAEPRPDGEAIILDVPGSERSYDLTGLKPGTEYSVLIHGVKGGLLSSPLSSIFTT
*A* 177

*Q* Identify measured apical domain:HSA associated with SEQ ID NO 162 (designed binder, FN3 domain) MLPAPKNLVVSRVTEDSARLSWTAPDAAFDSFYIAYAEPRPDGEAIKLEVPGSERSYDLTGLKPGTEYSVLIHGVKGGLLSSPLAIFTT
*A* 2.5

*Q* Identify measured apical domain:HSA associated with SEQ ID NO 168 (designed binder, FN3 domain) MLPAPKNLVVSRVTEDSARLSWTAPDAAFDSFYIAYAEPRPDGEAILLDVPGSERSYDLTGLKPGTEYSVLIHGVKGGLLSSPLSAIFTT
*A* 468

*Q* Identify measured apical domain:HSA associated with SEQ ID NO 130 (designed binder, FN3 domain) MLPAPKNLVVSRVTEDSARLSWTAPDAAFDSFVIEYFEWTLNGEAIVLTVPGSERSYDLTGLKPGTEYSVQIYGVKGGCLSRPLSAIFTT
*A* 0.9

*Q* Identify measured apical domain:HSA associated with SEQ ID NO 174 (designed binder, FN3 domain) MLPAPKNLVVSRVTEDSARLSWTAPDAAFDSFFIGYLEPQPPGEAIQLWVPGSERSYDLTGLKPGTEYNVTIQGVKGGFPSMPLSAIFTT
*A* 157

*Q* Identify measured apical domain:HSA associated with SEQ ID NO 182 (designed binder, FN3 domain) MLPAPKNLVVSRVTEDSARLSWTAPDAAFDSFYIAYAEPRPDGEAIDLHVPGSERSYDLTGLKPGTEYSVLIHGVKGGLLSSPLHALFTT
*A* 209

*Q* Identify measured apical domain:HSA associated with SEQ ID NO 129 (designed binder, FN3 domain) MLPAPKNLVVSRVTEDSARLSWTAPDAAFDSFYIAYAEPRPDGEAINLWVPGSERSYDLTGLKPGTEYSVLIHGVKGGLLSSPLDASFTT
*A* 264

*Q* Identify measured apical domain:HSA associated with SEQ ID NO 154 (designed binder, FN3 domain) MLPAPKNLVVSRVTEDSARLSWTAPDAAFDSFYIAYAEPRPDGEAIGLWVPGSERSYDLTGLKPGTEYSVLIHGVKGGLLSSPLIAHFTT
*A* 239

*Q* Identify measured apical domain:HSA associated with SEQ ID NO 194 (designed binder, FN3 domain) MLPAPKNLVVSRVTEDSARLSWTAPDAAFDSFYIAYAEPRPDGEAIALLVPGSERSYDLTGLKPGTEYSVLIHGVKGGLLSSPLSAIVTT
*A* 273

*Q* Identify measured apical domain:HSA associated with SEQ ID NO 159 (designed binder, FN3 domain) MLPAPKNLVVSRVTEDSARLSWTAPDAAFDSFYIAYAEPRPDGEAIYLKVPGSERSYDLTGLKPGTEYSVLIHGVKGGLLSSPLVAHFTT
*A* 345

*Q* Identify measured apical domain:HSA associated with SEQ ID NO 125 (designed binder, FN3 domain) MLPAPKNLVVSRVTEDSARLSWTAPDAAFDSFYIAYAEPRPDGEAIALHVPGSERSYDLTGLKPGTEYSVLIHGVKGGLLSSPLVAFFTT
*A* 327

*Q* Identify measured apical domain:HSA associated with SEQ ID NO 191 (designed binder, FN3 domain) MLPAPKNLVVSRVTEDSARLSWTAPDAAFDSFFIGYLEPQPPGEAIILAVPGSERSYDLTGLKPGTEYNVTIQGVKGGFPSLPLVASFTT
*A* 143

*Q* Identify measured apical domain:HSA associated with SEQ ID NO 171 (designed binder, FN3 domain) MLPAPKNLVVSRVTEDSARLSWTAPDAAFDSFYIAYAEPRPDGEAIQLWVPGSERSYDLTGLKPGTEYSVLIHGVKGGLLSSPLDAYFTT
*A* 296

*Q* Identify measured apical domain:HSA associated with SEQ ID NO 115 (designed binder, FN3 domain) MLPAPKNLVVSRVTEDSARLSWTAPDAAFDSFYIAYAEPRPDGEAIELHVPGSERSYDLTGLKPGTEYSVLIHGVKGGLLSSPLFTT
*A* 0.9

*Q* Identify measured apical domain:HSA associated with SEQ ID NO 186 (designed binder, FN3 domain) MLPAPKNLVVSRVTEDSARLSWTAPDAAFDSFYIAYAEPRPDGEAIQLGVPGSERSYDLTGLKPGTEYSVLIHGVKGGLLSSPLSAIFTT
*A* 322

*Q* Identify measured apical domain:HSA associated with SEQ ID NO 147 (designed binder, FN3 domain) MLPAPKNLVVSRVTEDSARLSWTAPDAAFDSFYIAYAEPRPDGEAIVLEVPGSERSYDLTGLKPGTEYSVLIHGVKGGLLSSPLDAHFTT
*A* 478

*Q* Identify measured apical domain:HSA associated with SEQ ID NO 127 (designed binder, FN3 domain) MLPAPKNLVVSRVTEDSARLSWTAPDAAFDSFYIAYAEPRPDGEAIFLGVPGSERSYDLTGLKPGTEYSVLIHGVKGGLLSSPLSAIFTT
*A* 292
